Data credit: patent US11512268B2

molecular target: Lipolase (Thermomyces lanuginosus); construct: purchased Sigma-Aldrich; assay: storage stability of lipase (Lipolase activity, pNitrophenol-valerate substrate) in liquid formulations at 37° C.; type: biochemical, Thermomyces lanuginosa; conditions: base formulation III.; component (a) 2.5 wt %; Lipolase 0.4 wt %; storage at 37° C.; 30 d
Sequence (O59952 23-291): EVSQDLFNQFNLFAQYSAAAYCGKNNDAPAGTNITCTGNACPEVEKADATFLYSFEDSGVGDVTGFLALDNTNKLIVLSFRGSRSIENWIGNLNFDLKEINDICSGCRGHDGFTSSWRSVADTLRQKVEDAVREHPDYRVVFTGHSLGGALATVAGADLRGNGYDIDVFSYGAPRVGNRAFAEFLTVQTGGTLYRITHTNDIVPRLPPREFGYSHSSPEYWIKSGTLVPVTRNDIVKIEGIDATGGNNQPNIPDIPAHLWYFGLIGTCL

{"compound": "CC(=O)OCC[N+](C)(C)C", "lipase activity, %": 74}
{"compound": "O=C([O-])CC(O)(CC(=O)O)C(=O)O.[Na+] [C-(A.20), monosodium salt of citric acid]", "lipase activity, %": 16}
{"compound": "O=C([O-])CC(O)(CC(=O)[O-])C(=O)[O-].[Na+].[Na+].[Na+] [C-(A.22), trisodium salt of citric acid]", "lipase activity, %": 19}
{"compound": "O=C([O-])CC(O)(CC(=O)[O-])C(=O)O.[Na+].[Na+] [C-(A.21), disodium salt of citric acid]", "lipase activity, %": 20}
